Catalogue of compounds with associated pIC50
Biological target: human TRPV4 (Homo sapiens)
Construct: host or cells: tetracycline-inducible Flp-In T-REx 293 cells
Experiment: Hypotonicity-induced Ca2+ influx (Fluo-4, FDSS)
Type: cell-based
Conditions: Flp-In T-REx 293 cells stably expressing human TRPV4, compounds listed by potency bin (<10 nM Tables 96-1/96-2, <3 nM Table 97)
pIC50: −log10 of the molar value.
value.kind: pIC50

compound=O=C([C@H](O)c1cccc(C(F)(F)F)c1)N1CCCc2nc(C3(c4cc(CCc5ccccc5)cs4)CC3)[nH]c(=O)c2C1 value_kind=pIC50 observed="> 8.00"
compound="O=C(C(O)c1cccc(-c2cccc(OCc3ccccc3)c2)c1)N1CCc2nc(C3(c4ccccc4)CC3)[nH]c(=O)c2C1 (centres unmarked)" value_kind=pIC50 observed="> 8.00"
compound="O=C(C(O)c1cccc(S(F)(F)(F)(F)F)c1)N1CCCc2nc(C3(c4cccc(F)c4)CC3)[nH]c(=O)c2C1 (centres unmarked)" value_kind=pIC50 observed="> 8.00"
compound=CC(C)c1cccc(C2(c3nc4c(c(=O)[nH]3)CN(C(=O)C(F)(F)c3cccc(Cl)c3)CCC4)CC2)c1 value_kind=pIC50 observed="> 8.00"
compound="CC(C)c1csc(C2(c3nc4c(c(=O)[nH]3)CN(C(=O)C(O)c3cccc(Cl)c3F)CC4)CC2)c1 (centres unmarked)" value_kind=pIC50 observed="> 8.52"
compound=N#Cc1cc(-c2cccc(C3(c4nc5c(c(=O)[nH]4)CN(C(=O)[C@H](O)c4cccc(C(F)(F)F)c4)CCC5)CC3)c2)ccc1F value_kind=pIC50 observed="> 8.52"
compound="O=C(C(O)c1cccc(-c2cccc(F)c2)c1)N1CCc2nc(C3(c4cccc(Cl)c4)CC3)[nH]c(=O)c2C1 (centres unmarked)" value_kind=pIC50 observed="> 8.00"
compound=O=C([C@H](O)c1cccc(-c2cc3ccccc3o2)c1)N1CCCc2nc(C3(c4ccccc4)CC3)[nH]c(=O)c2C1 value_kind=pIC50 observed="> 8.52"

###

Molecular target: human TRPV4 (Homo sapiens, UniProt Q9HBA0)
Construct: host or cells: tetracycline-inducible Flp-In T-REx 293 cells
Sequence (Q9HBA0 whole entry): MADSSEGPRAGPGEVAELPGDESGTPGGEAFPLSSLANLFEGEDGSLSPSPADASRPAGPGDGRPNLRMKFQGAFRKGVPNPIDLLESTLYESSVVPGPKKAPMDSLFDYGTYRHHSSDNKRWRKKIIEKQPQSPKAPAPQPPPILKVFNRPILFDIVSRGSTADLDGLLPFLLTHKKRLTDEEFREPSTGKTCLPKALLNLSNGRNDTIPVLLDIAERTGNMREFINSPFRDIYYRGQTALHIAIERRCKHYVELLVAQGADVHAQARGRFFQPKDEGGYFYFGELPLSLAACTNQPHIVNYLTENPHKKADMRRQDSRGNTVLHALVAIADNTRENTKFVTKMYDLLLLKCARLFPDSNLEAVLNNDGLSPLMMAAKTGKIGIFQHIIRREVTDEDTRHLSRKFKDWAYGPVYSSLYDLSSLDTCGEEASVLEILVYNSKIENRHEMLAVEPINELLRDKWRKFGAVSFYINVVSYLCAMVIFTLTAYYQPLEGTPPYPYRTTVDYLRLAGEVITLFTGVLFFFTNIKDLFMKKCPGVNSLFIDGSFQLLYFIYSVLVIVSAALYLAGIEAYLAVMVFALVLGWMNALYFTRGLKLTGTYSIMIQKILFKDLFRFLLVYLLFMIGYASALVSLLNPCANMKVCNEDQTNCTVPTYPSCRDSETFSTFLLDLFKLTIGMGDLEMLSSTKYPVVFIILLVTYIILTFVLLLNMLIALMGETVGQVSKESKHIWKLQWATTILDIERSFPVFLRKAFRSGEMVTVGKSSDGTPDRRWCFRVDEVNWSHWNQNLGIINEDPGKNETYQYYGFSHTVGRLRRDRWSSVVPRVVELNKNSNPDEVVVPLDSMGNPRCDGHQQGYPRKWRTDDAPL
Experiment: Hypotonicity-induced Ca2+ influx (Fluo-4, FDSS)
Assay type: cell-based
Settings: Flp-In T-REx 293 cells expressing human TRPV4, examples listed under heading 'Human IC50<50 nM'
value.kind: IC50

compound=CC(C)c1cccc(C2(c3nc4c(c(=O)[nH]3)CN(C(=O)C(F)(F)c3cccc(Cl)c3)CCC4)CC2)c1 observed="< 50 nM"
compound=O=C([C@H](O)c1cccc(Cl)c1)N1CCCc2nc(C3(c4cccs4)CC3)[nH]c(=O)c2C1 observed="< 50 nM"
compound="Cc1cc(F)cc(-c2cccc(C(O)C(=O)N3CCc4nc(C5(c6ccccc6)CC5)[nH]c(=O)c4C3)c2)c1 (stereo not drawn)" observed="< 50 nM"
compound="O=C(C(O)c1cccc(-c2cnc3ccccc3c2)c1)N1CCc2nc(C3(c4ccccc4)CC3)[nH]c(=O)c2C1 (stereo not drawn)" observed="< 50 nM"
compound="CC(C)c1csc(C2(c3nc4c(c(=O)[nH]3)CN(C(=O)C(O)c3cccc(C(F)(F)F)c3F)CC4)CC2)c1 (stereo not drawn)" observed="< 50 nM"
compound=O=C(N1CCCc2nc(C3(c4cccc(F)c4)CC3)[nH]c(=O)c2C1)C(F)(F)c1cccc(Cl)c1 observed="< 50 nM"
